# System: Influenza A virus Udorn/72
# TEST_METHOD_NOTES: microbe, parasite or virus in culture
# Assay type: cell-based
# CONDITION_CONTEXT: Influenza A virus, MDCK; Table 7; read-out: FLU EC50
MEASUREMENT_KIND: EC50 (µM)
Respond with the bare value in µM.

Worked examples, 6 molecules total:
| MOLECULE | EC50 (µM) |
| --- | --- |
| O=C(Nc1nc2ccc3scnc3c2o1)c1ccc2cc(OCCN3CCOCC3)ccc2c1 [Compound 10] | 3.2 |
| O=C(Nc1nc2ccc(NC(=O)c3ccco3)cc2s1)c1ccc2ccccc2c1 [Compound 13] | 5.3 |
| O=C(Nc1ccc2nc(NC(=O)c3ccc4ccccc4c3)sc2c1)c1ccccc1 [Compound 12] | 6.8 |
| Cc1nc2c(ccc3nc(NC(=O)c4ccc(S(=O)(=O)N5CC(C)OC(C)C5)cc4)oc32)s1 (stereo not drawn) [Compound 9] | 1.1 |
| O=C(Nc1nc2ccc(-c3nc4ccccc4o3)cc2s1)c1ccc2ccccc2c1 [Compound 15] | 6.8 |
| CC(C)(C)Oc1ccc2nc(NC(=O)c3ccc4ccccc4c3)sc2c1 [Compound 17] | 4.1 |

Here's the next entry for you.
[in] Endpoint output: EC50 of O=C(Nc1nc2ccc3scnc3c2o1)c1cccc(Br)c1 [Compound 6] . Value?
[out] 1.1

* * *

# Tested on: RSV
# TEST_METHOD_NOTES: In vitro activity against respiratory syncytial virus (HeLa cells)
# Type: cell-based
# CONDITION_CONTEXT: human respiratory syncytial virus, Table 7
pEC50: −log10 of the molar value.
MEASUREMENT_KIND: pEC50

Worked examples, 3 molecules total:
| MOLECULE | pEC50 |
| --- | --- |
| O=C(Nc1nc2ccc(-c3nc4ccccc4o3)cc2s1)c1ccc2ccccc2c1 [Compound 15] | < 5.52 |
| O=C(Nc1nc2ccc(S(=O)(=O)N3CCCCC3)cc2s1)c1ccc2ccccc2c1 [Compound 7] | < 5.52 |
| O=C(Nc1nc2ccc3scnc3c2s1)c1ccc2ccccc2c1 [Compound 2] | < 5.00 |

Here's the next entry for you.
[in] Endpoint output: pEC50 of Cc1nc2c(ccc3nc(NC(=O)c4cccc(Br)c4)sc32)s1 [Compound 1] . Value?
[out] < 5.00

From: patent US9884876B2
